Experiment: PSAC antagonists in infected red cells, primary screen, cell-based, P. falciparum Indochina, OD700, 18 h (AID 1157)
Details: P. falciparum Indochina infected erythrocytes, osmotic lysis OD700, 18 h; higher = more signal, called active from +8 up or from −8 down
We use 0.6 as the dividing line for z-score: on or above the line is T, below is F.

Known results for compounds:
[
  {
    "compound": "CC(C)[Si](OCCCNS(=O)(=O)c1ccc(Br)cc1)(C(C)C)C(C)C",
    "qualitative_label": "F"
  },
  {
    "compound": "C=CC[C@]1(C(N)=O)N=C(c2ccc(OCCCO)cc2)O[C@H]1c1ccccc1CN=[N+]=[N-]",
    "qualitative_label": "T"
  },
  {
    "compound": "CC(C)C[C@@H]1NC(=O)[C@H](CC(C)C)NC(=O)[C@@]23C(=O)N[C@@H](Cc4ccccc4)C2[C@H](C)[C@@]2(C)O[C@H]2C3/C=C/CC/C=C/CNC1=O (stereo partly specified)",
    "qualitative_label": "F"
  },
  {
    "compound": "O=C1C2C=CC(C(O)Cc3ccccc3)N(Nc3ccc([N+](=O)[O-])cc3)C2C(=O)N1c1ccccc1 (stereo unspecified)",
    "qualitative_label": "T"
  },
  {
    "compound": "COCCOC(=O)N1C(=O)[C@@]2(c3ccccc31)[C@H](C(=O)N1CCc3cc(OC)c(OC)cc3C1)[C@H]1C(=O)O[C@H](c3ccccc3)[C@H](c3ccccc3)N1[C@@H]2c1ccccc1OCCO",
    "qualitative_label": "F"
  }
]

Decide: z-score of COc1ccc(-c2ccccc2[C@@H]2N[C@H](C(=O)O)CC[C@H]2C)cc1 >= 0.6?
F
